Values were extracted from patent US20170165373A1.

- system name: T1, human BCMA (huBCMA), full length, on cells (human, UniProt Q02223 1-184)
- T1 construct: also called native huBCMA; B-cell maturation antigen
- T1 chain: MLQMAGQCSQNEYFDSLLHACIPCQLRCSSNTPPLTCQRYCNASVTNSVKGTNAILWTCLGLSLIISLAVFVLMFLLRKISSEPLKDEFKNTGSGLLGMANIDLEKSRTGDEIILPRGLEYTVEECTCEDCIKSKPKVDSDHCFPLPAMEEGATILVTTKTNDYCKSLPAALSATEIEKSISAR
- assay summary: FACS
Could you please report measured MFI for the items listed next?
Give bare numbers.

1) 29C12 (antibody, V domains shown, also called Ab-8; 29C12.1) VH: EVQLLESGGALVQPGGSLRLSCAASGFTFSSYAMNWVRQAPGKGLEWVSAISVGGDTYYADSVKGRFTISRDNSKNTLYLQMNSLRAEDTAVYYCAKDQVTMVRGVWYYYGLDVWGQGTTVTVSS VL: DIVMIQSPLSLPVTPGEPASISCRSSQSLLHSNGNNYLDWYLQKPGQSPHLLISLGSNRTSGVPDRFSGSGSGTDFTLKISRVEAEDVGVYYCMQALQPPRRFGQGTKLEIKR
82600

Dear reader, for each entry below, please note its MFI.
1. 35D2 (antibody, V domains shown, also called Ab-15; 35D2.1) VH: EVQLLESGGALVQPGGSLRLSCAASGFTFSSYAMNWVRQAPGKGLEWVSAISVGGGTYYADSVKGRFTISRDNSKNTLYLHVNSLRAEDTAVYYCAKDQVTMVRGVWYYYGLDVWGQGTTVTVSS VL: VIVLIQSPLSLPVTPGEPASISCRSSQSLLHSNGNNYLDWYLQKPGQSPHLLISLGSNRTSGVPDRFSGSGSGTDFTLKISRVEAEDVGFYYCMQALQPPRRFGQGTKLEIKR
2. 32B5 (antibody, V domains shown, 32B5.1 was purified hybridoma IgG2 or IgG4; later converted to human IgG1; also called Ab-10; 32B5.1) VH: EVQLLESGGALVQPGGSLRLSCAASGFTFSSYAMNWVRQAPGKGLEWVSAISVGGDTYYADSVKGRFTISRDNSKNTLYLHVNSLSAEDSAVYYCAKDQVTLVRGVWYYYGLDVWGQGTTVTVSS VL: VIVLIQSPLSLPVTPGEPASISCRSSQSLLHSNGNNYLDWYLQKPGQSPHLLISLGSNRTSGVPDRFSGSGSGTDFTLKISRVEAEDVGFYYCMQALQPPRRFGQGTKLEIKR
3. 33C7 (antibody, V domains shown, Tested as purified hybridoma IgG2 or IgG4; also called Ab-11; 33C7_HC#1) VH: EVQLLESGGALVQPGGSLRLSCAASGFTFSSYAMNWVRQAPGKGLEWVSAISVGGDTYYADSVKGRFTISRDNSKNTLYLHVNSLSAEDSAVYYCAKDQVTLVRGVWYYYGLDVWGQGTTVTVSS VL: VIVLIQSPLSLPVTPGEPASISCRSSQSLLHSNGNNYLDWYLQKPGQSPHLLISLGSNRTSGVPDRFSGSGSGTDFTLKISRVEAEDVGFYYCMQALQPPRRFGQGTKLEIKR

1. 129000
2. 137000
3. 132000
